meta.source: the supplement of paper PMC11208160

test: recombinant barcode read abundance after kanamycin selection (control-corrected) (log10(CPM+1)); higher = more efficient recombination; sequences stand for … in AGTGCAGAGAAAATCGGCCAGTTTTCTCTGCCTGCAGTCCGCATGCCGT…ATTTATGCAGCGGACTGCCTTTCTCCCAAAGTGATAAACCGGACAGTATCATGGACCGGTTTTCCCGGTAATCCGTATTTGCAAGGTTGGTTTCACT; site = the 11-nt target
Returns the class for an entry based on its recombinant barcode read abundance (log10). Class ranges: interval 1 = under 0.1, interval 2 = from 0.1 up to 0.3, interval 3 = 0.3 and over

>>> df
                         biopolymer_sequence  category_label
 0  GCGGGACAATGGGTTCTAACCTGTTGCCTTT [GCGGGACCTAG_LTGcore_AA_RTGcore_AA] (site GCGGGACCTAG) (LTG core: AA, RTG core: AA)      interval 2
 1  AAACAGTCTTGGGTTCTAACCTGTTGCCTTG [AAACAGTCTAG_LTGcore_CT_RTGcore_CA] (site AAACAGTCTAG) (LTG core: CT, RTG core: CA)      interval 3
 2  AGGCGGTCTTGGGTTCTAACCTGTTGCTTTG [AGGCGGTCTAA_LTGcore_CT_RTGcore_CA] (site AGGCGGTCTAA) (LTG core: CT, RTG core: CA)      interval 1
 3  CGAGCCCAGTGGGTTCTAACCTGTTGCTGAG [CGAGCCCCTCA_LTGcore_AG_RTGcore_CT] (site CGAGCCCCTCA) (LTG core: AG, RTG core: CT)      interval 2
 4  TAAGAATCCTGGGTTCTAACCTGTTGCCTAG [TAAGAATCTAG_LTGcore_CC_RTGcore_CT] (site TAAGAATCTAG) (LTG core: CC, RTG core: CT)      interval 2
 5  AAACACAAATGGGTTCTAACCTGTTGCCTAG [AAACACACTAG_LTGcore_AA_RTGcore_CT] (site AAACACACTAG) (LTG core: AA, RTG core: CT)      interval 1
 6  AGGCCTCCGTGGGTTCTAACCTGTTGCCTAG [AGGCCTCCTAG_LTGcore_CG_RTGcore_CT] (site AGGCCTCCTAG) (LTG core: CG, RTG core: CT)      interval 1
 7  CGGTCCCTATGGGTTCTAACCTGTTGCCATA [CGGTCCCCTTG_LTGcore_TA_RTGcore_TA] (site CGGTCCCCTTG) (LTG core: TA, RTG core: TA)      interval 2
 8  GAGGCCTCTTGGGTTCTAACCTGTTGCCAAG [GAGGCCTCTTG_LTGcore_CT_RTGcore_CT] (site GAGGCCTCTTG) (LTG core: CT, RTG core: CT)      interval 3
 9  GGGCGGACTTGGGTTCTAACCTGTTGCGGCG [GGGCGGACTCC_LTGcore_CT_RTGcore_CG] (site GGGCGGACTCC) (LTG core: CT, RTG core: CG)      interval 2
10  AAACACAATTGGGTTCTAACCTGTTGCCTAG [AAACACACTAG_LTGcore_AT_RTGcore_CT] (site AAACACACTAG) (LTG core: AT, RTG core: CT)      interval 3

* * *

Below, each entry is listed with its recorded recombinant barcode read abundance (log10).
experiment: recombinant barcode read abundance after kanamycin selection (control-corrected) (log10(CPM+1)); higher = more efficient recombination; sequences stand for … in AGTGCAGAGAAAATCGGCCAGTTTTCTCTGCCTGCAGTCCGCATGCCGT…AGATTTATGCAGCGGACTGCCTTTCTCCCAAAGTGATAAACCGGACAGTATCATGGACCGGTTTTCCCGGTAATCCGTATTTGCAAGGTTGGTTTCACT; site = the 11-nt target
Property name: recombinant barcode read abundance (log10)

>>> df
                         biopolymer_sequence  endpoint_value
 0  GTGTCAACTTGGGTTCTAACCTGTTGCCT (site GTGTCATCTAG)          0.0225
 1  GCTTGGACTTGGGTTCTAACCTGTTGCAG (site CCTTGGACTTT)           0.175
 2  TCCCGAACTTGGGTTCTAACCTGTTGCCT (site TCCCGAGCTAG)           0.173
 3  CTACCATCTTGGGTTCTAACCTGTTGCCG (site CTACCATCTCG)           0.255
 4  CATGTGCCTTGGGTTCTAACCTGTTGCCT (site CATGTGCCTAG)            1.89
 5  GGACATTCTTGGGTTCTAACCTGTTGCTT (site TGACATTCTAA)          0.0458
 6  CTTCGAGCTTGGGTTCTAACCTGTTGCGG (site CTTCGAGCTCC)            0.98
 7  GGTTGGGCTTGGGTTCTAACCTGTTGCAG (site GGCTGGGCTCG)          0.0851
 8  CTAATTACTTGGGTTCTAACCTGTTGCCT (site CTATTTACTAG)           0.196
 9  CACGGTCCTTGGGTTCTAACCTGTTGCCA (site ATGCTATCTCT)          0.0164
10  GTCTGCCCTTGGGTTCTAACCTGTTGCCT (site GCCTGCCCTAG)           0.191
11  ATGTCTACTTGGGTTCTAACCTGTTGCAG (site TGCCTATCTAA)           0.219
12  AAGACCTCTTGGGTTCTAACCTGTTGCTT (site AAGCCCTCTAA)           0.139
13  ACAATACCTTGGGTTCTAACCTGTTGCCG (site ACAATACCTCG)           0.408
14  GCGTGCCCTTGGGTTCTAACCTGTTGCCT (site CCGTGCCCTAG)           0.552
15  TATACTGCTTGGGTTCTAACCTGTTGCCT (site TATACTGCTAG)          0.0304
16  TGATATTCTTGGGTTCTAACCTGTTGCCT (site ACCAGCCCTCA)           0.448
17  GGACCCTCTTGGGTTCTAACCTGTTGCAC (site GGACCCTCTGT)            1.76
18  CCTGGGACTTGGGTTCTAACCTGTTGCTA (site ATGATACCTAT)           0.186
19  GCCATGACTTGGGTTCTAACCTGTTGCCT (site GCCATAACTAG)           0.067
20  AGAAGTCCTTGGGTTCTAACCTGTTGCGG (site AGAAGTCCTCA)          0.0978
21  AACATAACTTGGGTTCTAACCTGTTGCGT (site AACATAACTAC)            1.34
22  GACTTACCTTGGGTTCTAACCTGTTGCCT (site GACCTACCTAG)            1.43
23  CTAGCGGCTTGGGTTCTAACCTGTTGCAG (site CTAGCTCCTCT)          0.0734
24  GCCACACCTTGGGTTCTAACCTGTTGCCT (site GCCACACCTAG)           0.222
25  ACGGCCTCTTGGGTTCTAACCTGTTGCTT (site ACGGCCTCTAA)            2.63
26  TAGAAGCCTTGGGTTCTAACCTGTTGCTA (site TAGAAGCCTTA)           0.463
27  TAGGGCGCTTGGGTTCTAACCTGTTGCCT (site TAGGGCGCTAG)            1.01
28  AGGTGTTCTTGGGTTCTAACCTGTTGCCT (site ATGCGTTCTAG)           0.018
29  CATAGACCTTGGGTTCTAACCTGTTGCCT (site GATAGACCTAG)         0.00901
30  AGGTCGTCTTGGGTTCTAACCTGTTGCCT (site ACGTCGTCTAG)           0.146
31  GGTGGCCCTTGGGTTCTAACCTGTTGCCT (site GATGGCCCTAG)           0.108
32  ACCAATTCTTGGGTTCTAACCTGTTGCCT (site ACCAATCCTAG)           0.111
33  CTTGGGTCTTGGGTTCTAACCTGTTGCAT (site TCCCATACTTC)          0.0573
34  GATAGGACTTGGGTTCTAACCTGTTGCCT (site GATAGGACTAG)           0.647
35  CAGGGGCCTTGGGTTCTAACCTGTTGCCT (site CAGAGGCCTAG)          0.0366
36  GTCTGCCCTTGGGTTCTAACCTGTTGCCT (site GTCTGCCCTAG)            1.73
37  ACCCAACCTTGGGTTCTAACCTGTTGCCT (site ACCCAATCTAG)          0.0366
38  AGGTCGTCTTGGGTTCTAACCTGTTGCCT (site ATGTCGTCTAG)          0.0512
39  AGACTCCCTTGGGTTCTAACCTGTTGCAC (site AGACTCCCTGT)            2.08
40  TATTCTACTTGGGTTCTAACCTGTTGCGA (site TATTCTACTAC)          0.0359
41  CACGTTACTTGGGTTCTAACCTGTTGCCT (site CACGGAACTAG)          0.0559
